- target_under_test: hTRPA1 (Homo sapiens, UniProt O75762, K186N)
- Construct: expressed in transfected cells; host or cells: HEK293/TREx (Invitrogen), induced with tetracycline
- Sequence (O75762 whole entry K186N): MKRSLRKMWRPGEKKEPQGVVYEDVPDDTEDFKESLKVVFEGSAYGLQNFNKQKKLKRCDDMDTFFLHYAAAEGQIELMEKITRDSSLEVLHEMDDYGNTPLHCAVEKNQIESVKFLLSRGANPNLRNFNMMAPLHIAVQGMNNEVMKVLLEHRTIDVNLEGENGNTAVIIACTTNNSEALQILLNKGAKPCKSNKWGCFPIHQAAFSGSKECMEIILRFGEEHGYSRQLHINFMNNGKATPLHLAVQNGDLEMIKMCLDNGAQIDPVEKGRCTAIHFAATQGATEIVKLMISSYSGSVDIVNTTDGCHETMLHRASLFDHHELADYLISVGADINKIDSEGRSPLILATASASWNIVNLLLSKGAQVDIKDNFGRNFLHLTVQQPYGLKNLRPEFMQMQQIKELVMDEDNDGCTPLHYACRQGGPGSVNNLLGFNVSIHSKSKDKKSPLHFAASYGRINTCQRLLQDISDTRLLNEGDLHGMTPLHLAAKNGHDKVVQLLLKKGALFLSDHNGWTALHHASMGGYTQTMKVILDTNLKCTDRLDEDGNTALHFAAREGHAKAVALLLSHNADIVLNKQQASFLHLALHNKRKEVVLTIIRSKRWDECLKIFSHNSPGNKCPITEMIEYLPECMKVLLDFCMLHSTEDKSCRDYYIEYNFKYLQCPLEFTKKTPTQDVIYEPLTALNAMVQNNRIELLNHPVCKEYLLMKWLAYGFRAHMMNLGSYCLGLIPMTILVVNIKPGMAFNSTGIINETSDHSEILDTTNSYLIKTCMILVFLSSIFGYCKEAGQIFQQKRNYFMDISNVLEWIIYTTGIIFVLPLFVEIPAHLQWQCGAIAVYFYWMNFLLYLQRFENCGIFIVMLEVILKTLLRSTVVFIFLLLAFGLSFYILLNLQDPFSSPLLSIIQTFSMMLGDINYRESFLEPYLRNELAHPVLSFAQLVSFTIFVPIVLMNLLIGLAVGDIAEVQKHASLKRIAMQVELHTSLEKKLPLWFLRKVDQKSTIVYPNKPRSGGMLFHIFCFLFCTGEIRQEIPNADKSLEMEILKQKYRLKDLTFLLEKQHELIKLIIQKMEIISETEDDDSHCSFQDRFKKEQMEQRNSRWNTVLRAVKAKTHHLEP
- procedure_text: TRPA1 patch clamp (perforated patch, AITC-activated current)
- Format: cell-based
- condition_description: Table 2; inward current; read-out: hTRPA1 Patch Inwd IC50

>  <compound>
Cn1c(=O)c2c(ncn2CC(=O)Nc2ccc(C34CC5CC(CC(C5)C3)C4)cc2)n(C)c1=O [Compound 264]

>  <IC50>
≤ 0.5 µM

$$$$
>  <compound>
CC(C)c1ccc(N(C)C(=O)Cn2cnc3[nH]c(=O)n(C)c(=O)c32)cc1 [Compound 392]

>  <IC50>
> 10 µM

$$$$
>  <compound>
CCOc1ccc(Oc2ccc(NC(=O)Cn3cnc4c3c(=O)n(C)c(=O)n4C)cc2)cc1 [Compound 284]

>  <IC50>
≤ 0.5 µM

$$$$
>  <compound>
Cn1c(=O)c2c(ncn2CC(=O)Nc2ccc(OCc3ccccc3)cc2)n(C)c1=O [Compound 224]

>  <IC50>
≤ 5 µM

$$$$
>  <compound>
Cc1cccc(CCNC(=O)Cn2cnc3c2c(=O)n(C)c(=O)n3C)c1 [Compound 407]

>  <IC50>
≤ 10 µM

$$$$
>  <compound>
Cn1c(=O)c2c(ncn2CC(=O)NCCc2ccc(S(N)(=O)=O)cc2)n(C)c1=O [Compound 389]

>  <IC50>
> 10 µM

$$$$
>  <compound>
CCc1ccc(NC(=O)C(C)n2cnc3c2c(=O)n(C)c(=O)n3C)cc1 (centres unmarked) [Compound 299]

>  <IC50>
≤ 10 µM

$$$$
>  <compound>
Cn1c(=O)c2c(ncn2CC(=O)NCCc2ccc(Cl)cc2)n(C)c1=O [Compound 268]

>  <IC50>
≤ 1 µM

$$$$
